Cited source for all entries: patent US12662541B2

Items are presented alongside their recorded ka.
- measured_target: T1, rhEphA5 antigen (Homo sapiens, UniProt P54756)
- T1 construct: purchased R and D systems 3036-A5
- protocol_summary: ka (1/Ms)
// return numeric value only (unit: M⁻¹ s⁻¹, not printed)

See these solved cases before continuing.
VH1/VK1: humanized anti-EphA5 antibody, VH SEQ ID NO:2, VL SEQ ID NO:9 (antibody, V domains shown) VH: EVTLVESGGGLVQPGGSRKLSCAASGFTFSTFGIHWVRQAPGKGLEWVAYISGASTTIYYADTVKGRFTISRDNSKNTLYLQMNSLRSEDTAMYYCARYGTSFPYGLDYWGQGTSVTVSS VL: DIVMTQSPGSLAVSLGERATINCKASQSVDYDGDSYMNWYQQKPGKAPKLLIYGASNLESGIPDRFSGSGSGTDFTLTISRLEEEDAASYYCQQSNEDPFTFGQGTKLEIK | 1.25e-06
VH3/VK2: humanized anti-EphA5 antibody, VH SEQ ID NO:4, VL SEQ ID NO:10 (antibody, V domains shown) VH: EVQLVESGGGLVQPGGSLKLSCAASGFTFSTFGIHWVRQAPGKGLEWVAYISGASTTIYYADTVKGRFTISRDNSKNTLYLQMNSLRSEDTAMYYCARYGTSFPYGLDYWGQGTLVTVSS VL: DIVMTQSPDSLAVSLGERATINCKASQSVDYDGDSYMNWYQQKPGKAPKLLIYGASNLESGIPDRFSGSGSGTDFTLTISRLEPEDAASYYCQQSNEDPFTFGQGTKLEIK | 1.34e+06
VH0/VK0: chimeric antibody with murine 11C12 variable regions (SEQ ID NO:1, 8) and human IgG1/kappa constant regions (antibody, V domains shown, human IgG1/kappa constant regions) VH: EVTLKESGGGLVQPGGSRKLSCAASGFTFSTFGIHWVRQAPEKGLEWVAYISGASTTIYYADTVKGRFTISRDNPKNTLFLQMTSLRSEDTAMYYCARYGTSFPYGLDYWGQGTSVTVSS VL: DIVMTQSPGSLAVSLGQRATISCKASQSVDYDGDSYMNWYQQKPGQPPKLLIYGASNLESGIPARFSGSGSGTDFTLNIHPVEEEDAASYYCQQSNEDPFTFGSGTKLEIK | 1.15e-06

# input for lookup
# input // returns reported ka for input VH1/VK2: humanized anti-EphA5 antibody, VH SEQ ID NO:2, VL SEQ ID NO:10 (antibody, V domains shown) VH: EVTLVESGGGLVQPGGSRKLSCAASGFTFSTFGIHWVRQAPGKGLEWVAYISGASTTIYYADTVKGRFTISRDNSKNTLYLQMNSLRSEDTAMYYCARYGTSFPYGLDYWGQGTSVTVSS VL: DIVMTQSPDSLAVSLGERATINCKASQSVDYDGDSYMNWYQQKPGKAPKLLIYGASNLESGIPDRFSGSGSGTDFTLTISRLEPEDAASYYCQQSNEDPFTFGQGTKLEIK
# output 1.31e-06
